test system: pigweed, palmer; assay: Test C preemergence; format: in vivo, Amaranthus palmeri; conditions: Test C, preemergence, 125 g ai/ha; 0 to 100 scale (0 no effect, 100 complete control)
Metric name: Pigweed, Palmer plant response rating
Please reply with the number alone, leaving off any unit.

Kindly note the recorded Pigweed, Palmer plant response rating for Cc1ccc(-n2cnc(C(C)C)n2)cc1C(=O)N1C[C@H](C)Oc2c(F)cccc21 , which is 100

---

Each item that follows carries a reported Corn plant response rating.
test system: corn; test: Test C preemergence; type: in vivo, Zea mays; details: Test C, preemergence, 125 g ai/ha; 0 to 100 scale (0 no effect, 100 complete control)
Answer with a number only.

Compound: Cc1ccc(-n2cnc(C(C)C)n2)cc1C(=O)N1CC(C(F)(F)F)Oc2c(Cl)cccc21 (single isomer, unassigned) [Compound 291]
Corn plant response rating: 30

Compound: Cc1c(F)cc(-n2cnc(C(C)C)n2)cc1C(=O)N1C[C@H](C)Oc2c(Cl)cccc21 [Compound 151]
Corn plant response rating: 20

Compound: CCc1ccc(-n2cnc(C(C)(C)O)n2)cc1C(=O)N1C[C@H](C)Oc2c(Cl)cccc21 [Compound 277]
Corn plant response rating: 50

Compound: CCn1cnc(-c2cccc(C(=O)N3C[C@H](C)Oc4c(C)cccc43)c2)n1 [Compound 165]
Corn plant response rating: 0

Compound: Cc1ccc(-n2cnc(C3CCC3)n2)cc1C(=O)N1CC(C(F)(F)F)Oc2c(Cl)cccc21 (single isomer, unassigned) [Compound 219]
Corn plant response rating: 10

Compound: COC[C@H]1CN(C(=O)c2cc(-n3cnc(C4CC4)n3)ccc2C)c2cccc(Cl)c2O1 [Compound 266]
Corn plant response rating: 20

Next:
Measured Corn plant response rating, Cc1ccc(-n2cnc(C[S+](C)[O-])n2)cc1C(=O)N1C[C@H](C)Oc2c(Cl)cccc21 (stereo partly shown) [Compound 224] : 0

---

test system: pigweed, palmer; assay: Test A postemergence; assay type: in vivo, Amaranthus palmeri; conditions: 500 g ai/ha, postemergence, 10 days, visual injury, 0 to 100 scale (0 no effect, 100 complete control)
Lab note: anything with Plant response rating, Pigweed, Palmer at or over 90 counts as 1; the rest go in -1.

Compound: CC(C)c1ncn(-c2ccc(OCC(F)(F)F)c(C(=O)N3C[C@H](C)Oc4c(Cl)cccc43)c2)n1 [Compound 141]
Tgt: pigweed, palmer
Assigned class: 1

Compound: C[C@H]1CN(C(=O)c2cc(I)cc(-n3cncn3)c2)c2cccc(Cl)c2O1 [Compound 137]
Tgt: pigweed, palmer
Assigned class: -1

Compound: COCCc1ncn(-c2cccc(C(=O)N3C[C@H](C)Oc4c(C)cccc43)c2)n1 [Compound 113]
Tgt: pigweed, palmer
Assigned class: -1

Compound: C[C@H]1CN(C(=O)c2cc(Br)cc(-n3cncn3)c2)c2cccc(Cl)c2O1 [Compound 114]
Tgt: pigweed, palmer
Assigned class: 1

Compound: C[C@H]1CN(C(=O)c2cc(-n3cncn3)ccc2C(F)(F)F)c2cccc(Cl)c2O1 [Compound 70]
Tgt: pigweed, palmer
Assigned class: -1

Compound: Cc1ccc(-n2cnc(C3CCC3)n2)cc1C(=O)N1C[C@H](C)Oc2c(C)cccc21 [Compound 97]
Tgt: pigweed, palmer
Assigned class: 1

Now for a further compound.
Could you please find out whether CCc1ccc(-n2cnc(C3CCC3)n2)cc1C(=O)N1C[C@H](C)Oc2c(Cl)cccc21 [Compound 104] has Plant response rating, Pigweed, Palmer that meets 90 or exceeds it? 1

---

test system: blackgrass; experiment: Test C preemergence; assay type: in vivo, Alopecurus myosuroides; details: Preemergence, 500 g ai/ha; visual rating after 10 days, 0 to 100 scale (0 no effect, 100 complete control)
Metric name: Plant response rating, Blackgrass
// no unit string in output, number only

Here CCc1ccc(-n2cnc(C(C)(C)O)n2)cc1C(=O)N1C[C@H](C)Oc2c(C)cccc21 [Compound 279] was tested on blackgrass, and its Plant response rating, Blackgrass came to 90

Tested system blackgrass; Plant response rating, Blackgrass recorded for C[C@H]1CN(C(=O)c2cccc(-n3cnc(C(C)(C)O)n3)c2)c2cccc(Cl)c2O1 [Compound 169] was 90

Value (Plant response rating, Blackgrass, blackgrass) for record CC(C)c1ncn(-c2cc3c(c(C(=O)N4C[C@H](C)Oc5c(Cl)cccc54)c2)CCC3)n1 [Compound 174] = 80

The compound CSCc1ncn(-c2ccc(C)c(C(=O)N3C[C@H](C)Oc4c(Cl)cccc43)c2)n1 [Compound 178] , when measured on blackgrass, yielded Plant response rating, Blackgrass of 90

Let me check: COc1cc(C(=O)N2C[C@H](C)Oc3c(Cl)cccc32)cc(-n2cnc(C(C)C)n2)c1 [Compound 212] , system blackgrass, measured Plant response rating, Blackgrass is 90

Kindly note: blackgrass, Cc1ccc(-n2cnc(C(C)C)n2)cc1C(=O)N1C[C@H](C)Oc2c(F)cccc21 [Compound 242] , Plant response rating, Blackgrass value reported: 90

blackgrass Plant response rating, Blackgrass of COc1ccc(-n2cnc(C(C)C)n2)cc1C(=O)N1C[C@H](C)Oc2c(C)cccc21 [Compound 210] is 100

// assay blackgrass, entry C[C@H]1CN(C(=O)c2cc(-n3cnc(C4CCC4)n3)cc3c2OCCO3)c2cccc(Cl)c2O1 [Compound 157] , Plant response rating, Blackgrass value = 30

The reported blackgrass Plant response rating, Blackgrass of Cc1cccc2c1OC(C)CN2C(=O)c1cccc(-n2ncnc2C2CC2)c1 (racemic) [Compound 196] is 0

// Plant response rating, Blackgrass (blackgrass) for COC[C@H]1CN(C(=O)c2cccc(-n3cnc(C(C)(C)O)n3)c2)c2cccc(Cl)c2O1 [Compound 253] = 50

---

test system: barnyardgrass; assay: Test C postemergence; format: in vivo, Echinochloa crusgalli; conditions: Postemergence, 1000 g ai/ha, 10 days, visual 0 to 100 scale (0 no effect, 100 complete control)
Excerpt: […]
Metric name: Plant response rating, Barnyardgrass

The cases that follow already have their Plant response rating, Barnyardgrass on record.
Structure: Cc1cccc2c1O[C@@H](C)CN2C(=O)c1cccc(-n2cncc2Br)c1
Tgt: barnyardgrass
Plant response rating, Barnyardgrass: 0
--
Structure: Cc1ncc(-c2cccc(C(=O)N3C[C@H](C)Oc4c(Cl)cccc43)c2)s1
Tgt: barnyardgrass
Plant response rating, Barnyardgrass: 50
--
Structure: C[C@H]1CN(C(=O)c2cccc(-c3cncc(Cl)c3)c2)c2cccc(Cl)c2O1
Tgt: barnyardgrass
Plant response rating, Barnyardgrass: 10
--
Structure: Cc1cc(-c2cccc(C(=O)N3C[C@H](C)Oc4c(Cl)cccc43)c2)sn1
Tgt: barnyardgrass
Plant response rating, Barnyardgrass: 70
--
Structure: C[C@H]1CN(C(=O)c2cccc(-c3cn(C)cn3)c2)c2cccc(Cl)c2O1
Tgt: barnyardgrass
Plant response rating, Barnyardgrass: 0

Value (Plant response rating, Barnyardgrass, barnyardgrass) for record COc1ccc(-c2cccc(C(=O)N3C[C@H](C)Oc4c(Cl)cccc43)c2)cn1 = 20

---

test system: kochia; assay: Test C postemergence; assay type: in vivo, Bassia scoparia; settings: 500 g ai/ha, postemergence, 10 days, 0 to 100 scale (0 no effect, 100 complete control)
Metric name: Plant response rating, Kochia
Lab note: jot the number down without any unit.

Molecule: Cc1cccc2c1OC(C(F)(F)F)CN2C(=O)c1cccc(-n2cnc(C(C)C)n2)c1 (single isomer, unassigned) [Compound 302]
Test result: 70

Record COC[C@H]1CN(C(=O)c2cc(-n3cnc(C(C)(C)C)n3)cc3c2OCCO3)c2cccc(Cl)c2O1 . Reported Plant response rating, Kochia: 100

Lab book: Plant response rating, Kochia of Cc1ncn(-c2cc(C(=O)N3CC(C(F)(F)F)Oc4c(Cl)cccc43)ccn2)n1 (stereo not shown) noted as 80

Kindly note the recorded Plant response rating, Kochia for CCOC[C@H]1CN(C(=O)c2cc(-n3cnc(C(C)C)n3)ccc2OC)c2cccc(Cl)c2O1 , which is 90

---

test system: oat, wild; assay: Test A preemergence; type: in vivo, Avena fatua; conditions: Avena fatua, pre-emergence, 240 h, 125 g ai/ha, visual injury after 10 days, 0 to 100 scale, 0 is no effect, 100 is complete control, read-out: Plant response rating, Oat, Wild
Metric name: pest or weed control at 125 g/ha (%)
Report only the number, with the unit % understood.

Compound: CCc1ccc(-n2cnc(C(C)C)n2)cc1C(=O)N1C[C@H](C)Oc2c(Cl)cccc21
Unit symbol: %
Test result: 40
//
Compound: COc1ccc(-n2cnc(C(C)C)n2)cc1C(=O)N1C[C@H](C)Oc2c(Cl)cccc21
Unit symbol: %
Test result: 90
//
Compound: Cc1ncn(-c2ccc(C)c(C(=O)N3C[C@H](C)Oc4c(Cl)cccc43)c2)n1 (single isomer, unassigned)
Unit symbol: %
Test result: 60

Could you now consider this next compound?
Field pest or weed control at 125 g/ha (entry C#Cc1ncn(-c2cccc(C(=O)N3C[C@H](C)Oc4c(C)cccc43)c2)n1 ) reads 30
